# assay.explanation: Relative lipophilicity was determined
# Type: physicochemical
# stated.conditions: C-18 reverse phase HPLC
# rK per record follows
No unit in the answer, only the number.

GET /value?item= CC(CCC(=O)N1CCC[C@@H]1C(=O)O)C1CC[C@H]2[C@@H]3C[C@H](O)C4C[C@H](O)CC[C@]4(C)[C@H]3CC[C@]12C (some centres undefined) &field=rK returns 0.94

GET /value?item= CC(CCC(=O)N1CCC[C@@H]1C(=O)O)C1CC[C@H]2[C@@H]3[C@H](O)[C@H](O)C4C[C@H](O)CC[C@]4(C)[C@H]3CC[C@]12C (some centres undefined) &field=rK returns 0.85

GET /value?item= CC(CCC(=O)N1CCC[C@@H]1C(=O)O)C1CC[C@H]2[C@@H]3[C@@H](O)CC4C[C@H](O)CC[C@]4(C)[C@H]3CC[C@]12C (some centres undefined) &field=rK returns 1.25

GET /value?item= C[C@H](CCC(=O)O)[C@H]1CC[C@H]2[C@@H]3C[C@H](O)[C@@H]4C[C@H](O)CC[C@]4(C)[C@H]3CC[C@]12C &field=rK returns 0.89

GET /value?item= C[C@H](CCC(=O)O)[C@H]1CC[C@H]2[C@@H]3[C@@H](O)C[C@@H]4C[C@H](O)CC[C@]4(C)[C@H]3CC[C@]12C &field=rK returns 1

---

# System: Rattus norvegicus
# assay.explanation: Secretion of Bile acids in Bile Fistula rats after the iv administration of compound, expressed as the maximum secretion rate i
# Assay type: ADME, organism-based
# stated.conditions: in vivo
The label is Met for Smax below 8 µM/min/kg and Not met for Smax equal to or exceeding 8 µM/min/kg.

molecule	classification
CC(CCC(=O)N1CCC[C@@H]1C(=O)O)C1CC[C@H]2[C@@H]3[C@@H](O)CC4C[C@H](O)CC[C@]4(C)[C@H]3CC[C@]12C (stereo partly specified)	Met
CO[C@H]1C[C@H](C(=O)O)N(C(=O)CCC(C)C2CC[C@H]3[C@@H]4[C@@H](O)CC5C[C@H](O)CC[C@]5(C)[C@H]4CC[C@]23C)C1 (stereo partly specified)	Not met
CC(CCC(=O)N1CCC[C@@H]1C(=O)O)C1CC[C@H]2[C@@H]3C[C@H](O)C4C[C@H](O)CC[C@]4(C)[C@H]3CC[C@]12C (stereo partly specified)	Met
CC(CCC(=O)N1C[C@@H](O)C[C@@H]1C(=O)O)C1CC[C@H]2[C@@H]3[C@@H](O)CC4C[C@H](O)CC[C@]4(C)[C@H]3CC[C@]12C (stereo partly specified)	Met

Please state whether Smax is below 8 µM/min/kg for CC(CCC(=O)N1CCC[C@@H]1C(=O)O)C1CC[C@H]2[C@@H]3[C@H](O)[C@H](O)C4C[C@H](O)CC[C@]4(C)[C@H]3CC[C@]12C (stereo partly specified)
Met

---

# Test system: Rattus norvegicus
# assay.explanation: Secretion of phospholipid in Bile Fistula rats after the iv administration of compound, expressed as the residual secretion rate i
# Type: ADME, organism-based
# stated.conditions: in vivo
measurement.type: Rs (µM/min/kg)
Output spec: scalar in µM/min/kg, unitless text.

# annotated cases, reported Rs shown
molecule	Rs [µM/min/kg]
CC(CCC(=O)N1CCC[C@@H]1C(=O)O)C1CC[C@H]2[C@@H]3[C@@H](O)CC4C[C@H](O)CC[C@]4(C)[C@H]3CC[C@]12C (stereo partly drawn)	0.11
CC(CCC(=O)N1C[C@@H](O)C[C@@H]1C(=O)O)C1CC[C@H]2[C@@H]3[C@@H](O)CC4C[C@H](O)CC[C@]4(C)[C@H]3CC[C@]12C (stereo partly drawn)	0.12

We now examine a further molecule.
GET /value?item= CC(CCC(=O)N1CCC[C@@H]1C(=O)O)C1CC[C@H]2[C@@H]3[C@H](O)[C@H](O)C4C[C@H](O)CC[C@]4(C)[C@H]3CC[C@]12C (stereo partly drawn) &field=Rs returns 0.26

---

# Smax per record follows
# Tested on: Rattus norvegicus
# assay.explanation: Calcium output in Bile Fistula rats after iv coinfusion of TCDCA and compound.
# Format: ADME, organism-based
# stated.conditions: in vivo

# annotated cases, reported Smax shown
compound	experimental.system	Smax
CC(CCC(=O)N1CCC[C@@H]1C(=O)O)C1CC[C@H]2[C@@H]3[C@H](O)[C@H](O)C4C[C@H](O)CC[C@]4(C)[C@H]3CC[C@]12C (stereo partly drawn)	Rattus norvegicus	0.39 µM/min/kg
C[C@H](CCC(=O)O)[C@H]1CC[C@H]2[C@@H]3[C@@H](O)C[C@@H]4C[C@H](O)CC[C@]4(C)[C@H]3CC[C@]12C [URSODIOL]	Rattus norvegicus	0.00018 µM/min/g

The reported Smax value, Rattus norvegicus, for CC(CCC(=O)N1CCC[C@@H]1C(=O)O)C1CC[C@H]2[C@@H]3[C@@H](O)CC4C[C@H](O)CC[C@]4(C)[C@H]3CC[C@]12C (stereo partly drawn) reads 0.42 µmol/min/kg

---

# assay.explanation: Partition coefficient (logP)
# Type: physicochemical
# stated.conditions: octanol/water
measurement.type: logP

# annotated cases, reported logP shown
compound	logP
C[C@H](CCC(=O)O)[C@H]1CC[C@H]2[C@@H]3C[C@H](O)[C@@H]4C[C@H](O)CC[C@]4(C)[C@H]3CC[C@]12C	4.27
CC(CCC(=O)N1CCC[C@H]1C(=O)O)C1CC[C@H]2[C@@H]3[C@@H](O)CC4C[C@H](O)CC[C@]4(C)[C@H]3CC[C@]12C (stereo partly drawn)	4.41

We now examine a further compound.
GET /value?item= CC(CCC(=O)N1C[C@@H](O)C[C@@H]1C(=O)O)C1CC[C@H]2[C@@H]3[C@@H](O)CC4C[C@H](O)CC[C@]4(C)[C@H]3CC[C@]12C (stereo partly drawn) &field=logP returns 3.59

---

# assay.explanation: Relative lipophilicity was determined
# Assay type: physicochemical
# stated.conditions: C-18 reverse phase HPLC
measurement.type: rK
No unit in the answer, only the number.

# annotated cases, reported rK shown
molecule	measured.number
CO[C@H]1C[C@H](C(=O)O)N(C(=O)CCC(C)C2CC[C@H]3[C@@H]4[C@@H](O)CC5C[C@H](O)CC[C@]5(C)[C@H]4CC[C@]23C)C1 (some centres undefined)	0.7
CC(CCC(=O)N1CCC[C@H]1C(=O)O)C1CC[C@H]2[C@@H]3[C@@H](O)CC4C[C@H](O)CC[C@]4(C)[C@H]3CC[C@]12C (some centres undefined)	0.92
CC(CCC(=O)NCC(=O)O)C1CC[C@H]2[C@@H]3[C@H](O)CC4C[C@H](O)CCC4(C)[C@H]3CCC12C (some centres undefined)	0.85

GET /value?item= CC(CCC(=O)N1C[C@@H](O)C[C@@H]1C(=O)O)C1CC[C@H]2[C@@H]3[C@@H](O)CC4C[C@H](O)CC[C@]4(C)[C@H]3CC[C@]12C (some centres undefined) &field=rK returns 0.6
